- measured_on: T1, MHC class I allele B*0702 monomer (human, biotinylated, bound to streptavidin-coated plate)
- T1 construct: also called B7; HLA-B7
- measurement_protocol: iTopia, multiparametric iScore
quantity_kind: iScore

>  <binder>
LDLSNNSLV [5T4 9-mer peptide 120]

>  <result_number>
0

$$$$
>  <binder>
LTCAYPEKM [5T4 9-mer peptide 161]

>  <result_number>
0

$$$$
>  <binder>
PWVCDCHMA [5T4 9-mer peptide 148]

>  <result_number>
0

$$$$
>  <binder>
MVTWLKETE [5T4 9-mer peptide 153]

>  <result_number>
0

$$$$
>  <binder>
IRVFLDNNP [5T4 9-mer peptide 144]

>  <result_number>
0

$$$$
>  <binder>
NNPWVCDCH [5T4 9-mer peptide 147]

>  <result_number>
0

$$$$
>  <binder>
EKMRNRVLL [5T4 9-mer peptide 164]

>  <result_number>
0

$$$$
>  <binder>
LSNNSLVSL [5T4 9-mer peptide 121]

>  <result_number>
0.012

$$$$
